Examples of molecules with documented melting point follow.

Check out these entries, answers already filled in.
Structure notation: CCOC(=O)c1c(C(C)(C)C)csc1N
melting point: 56 to 58 °C
//
Structure notation: N#CCS(=O)(=O)N1CCCCC1
melting point: 137 to 139 °C
//
Structure notation: N#Cc1cccc(N2CCOC2=O)c1
melting point: 102 to 104 °C
//
Structure notation: O=C(O)CNC(=O)c1ccccc1Cl
melting point: 182 to 184 °C
//
Structure notation: Oc1ccnc(C2CC2)n1
melting point: 152 to 154 °C

Exam item: Return melting point for the following molecule: NC(=O)c1c[nH]c2ccccc12
Marked response: 201 to 203 °C

Exam item: Supply reported melting point belonging to this molecule: Nc1nc(-c2cc(F)ccc2F)cs1
Marked response: 145 to 147 °C

Exam item: Look up and state reported melting point for C/C(=C\C(=O)O)C12CC3CC(CC(C3)C1)C2
Marked response: 169 to 171 °C

Exam item: Report measured melting point; entry is O=C(O)c1cc(Br)c[nH]1
Marked response: 169 to 171 °C

Exam item: For the molecule CS(=O)(=O)Nc1ccccc1N , give its measured melting point value.
Marked response: 102 to 104 °C

Exam item: Could you please provide reported melting point for CCc1cnc(N)s1 ? Thanks!
Marked response: 54 to 56 °C

Exam item: Supply recorded melting point for CC(C)C(=O)Nc1nc(CC(=O)O)cs1 here.
Marked response: 187 to 189 °C

Exam item: In one line, give reported melting point of the entry CCOCCNC(=O)c1cccc(Br)c1 .
Marked response: 62 to 64 °C

Exam item: Identify melting point associated with the molecule COc1ccc(COCC(=O)O)cc1
Marked response: 41 to 43 °C

Exam item: Tell me melting point reported for COc1ccc(-n2nc(C(=O)O)cc2C)cc1
Marked response: 149 to 151 °C

----------
Parameter measured: melting point

Compound: COc1ccc(-c2cnnc(N)n2)cc1
Reported result: 246 to 248 °C

Compound: CC1=C(C(=O)O)C(=O)OC1(C)C
Reported result: 111 to 113 °C

Compound: Cc1cc2nc(-c3ccccc3)cc(C(=O)O)c2cc1C
Reported result: 251 to 253 °C

Compound: CCOC(=O)C(=O)c1cc(Br)ccc1OC
Reported result: 69 to 71 °C

Compound: O=C1CN=C(S)N1c1ccccc1
Reported result: 253 to 255 °C

Compound: CCOC(=O)c1cc(S(C)(=O)=O)ccc1N
Reported result: 130 to 132 °C

Compound: CC(=O)c1sc2nc(CCl)[nH]c(=O)c2c1C
Reported result: 247 to 249 °C

Compound: NCc1cc[nH]n1
Reported result: 58 to 60 °C

Compound: C=CC(=O)Nc1cc(Cl)c(OC)cc1OC
Reported result: 142 to 144 °C

Compound: NS(=O)(=O)c1cccc(-c2nnco2)c1
Reported result: 184 to 186 °C

With those in mind, consider the next compound.
Exam item: Give the reported melting point for this compound. O=C1CCc2cc(Br)c(S(=O)(=O)Cl)cc2N1
Marked response: 224 to 226 °C

----------
Reported melting point values for the following molecules.

Exam item: Supply melting point value. Item: Cc1cc(S(N)(=O)=O)c(C)o1
Marked response: 86 to 88 °C

Exam item: Return reported melting point. Input molecule: Cc1cc(Br)cc(C=O)c1O
Marked response: 68 to 70 °C

Exam item: Look up and state reported melting point for Cc1nc(Cc2ccccn2)sc1C(=O)O
Marked response: 189 to 191 °C

Exam item: Return reported melting point. Input molecule: COc1ccc(NCCC(=O)O)cc1
Marked response: 82 to 84 °C

Source: a melting point compilation (Tetko et al.)
